Attribution: ChEMBL document CHEMBL4028801

Assay: AUC in human at 20 to 40 mg, iv QD after 24 hrs
Format: ADME, organism-based
Conditions: in vivo
Measurement Label: AUC at 24 h

{"columns": ["Compound", "Measurement Label", "Value"],
 "data": [
  ["COc1ccc2[nH]c([S+]([O-])Cc3ncc(C)c(OC)c3C)nc2c1 (stereo unspecified) [OMEPRAZOLE]", "AUC at 24 h", "11.2 µM·h"]
]}

* * *

Assay: AUC in human at 600 mg administered twice weekly followed by 600 mg administered once in a week measured after 84 hrs
Assay type: ADME
Set-up: dose 600 mg, time < 84 hr
Conditions: in vivo

{"columns": ["Molecule", "AUC at 84 h [µM·h]"],
 "data": [
  ["CO[C@H]1/C=C/O[C@@]2(C)Oc3c(C)c(O)c4c(O)c(c(/C=N/N5CCN(C6CCCC6)CC5)c(O)c4c3C2=O)NC(=O)/C(C)=C\\C=C\\[C@H](C)[C@H](O)[C@@H](C)[C@@H](O)[C@@H](C)[C@H](OC(C)=O)[C@@H]1C [RIFAPENTINE]", 395]
]}
